B1: glmS ribozyme (parent)
chain: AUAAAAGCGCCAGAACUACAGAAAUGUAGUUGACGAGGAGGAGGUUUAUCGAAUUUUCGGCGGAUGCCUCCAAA

# Variants of: B1
# run-description: self-cleavage kobs at 2500 uM GlcN6P; higher = faster cleavage; RNA array
# condition-notes: with glucosamine-6-phosphate
Fewer inactive variants are shown than the library holds.
parameter: self-cleavage kobs at 2500 uM GlcN6P

self-cleavage kobs at 2500 uM GlcN6P lookup needed for AUAAAAGCGUCAGAACUACAGAAAUGUAGUGGACGAGGAGGAGGUUUAACGAAUUUUCGGCUGAUGCCUCCAAA [C10U U31G U49A G62U] , thanks.
< 1e-05 s⁻¹

Can you handle AUAAAAGCUCCAGAACUACAGAAAUGUAGUUGACGAGGAGGAGGUUCAUCGAAUUUUCGGCGGAUGCCUCCAAA [G9U U47C] next?
< 1e-05 s⁻¹

Now the same for AUAAAAGCGCCAGAAGUACAGAAAUGUAGUUUACGAGGAGGAGGUUUAUCGAAUUUUCGGUGGAUGCCUCCAAA [C16G G32U C61U]
< 1e-05 s⁻¹

Okay, and AUAAAAGCGCCAGAACUACAGAAAUGUAGGUGACGAGAAGGAGGUGUAUCGAAUUUUCGGCGGAUGCCUCCAAA [U30G G38A U46G] ?
< 1e-05 s⁻¹

Try the variant AUAAAAGCCCCAGAACUACAGAAAUGUAGUUGACGAGGAGGAGGUUUAUCGAUUUUUCGGCGGAUGCCUCCAAA [G9C A53U]
< 1e-05 s⁻¹

Again, but for AUAAAAGCGCCAGAACUACAGAAAUGUAGUUGACGAGGAGGAGGUUUCUCGACUUUUCGGCGGAUGCCUCCAAA [A48C A53C]
3.99e-05 s⁻¹
